meta.source: patent US20160002331A1

EC50 values by entry
- TARGET OR TEST SYSTEM: T1, full-length mouse Notch1 expressed on the cell surface of U-2 OS cells (mouse, UniProt Q01705 19-2531)
- T1 construct: whole, on cells; also called murine Notch1
- T1 sequence (Q01705 19-2531): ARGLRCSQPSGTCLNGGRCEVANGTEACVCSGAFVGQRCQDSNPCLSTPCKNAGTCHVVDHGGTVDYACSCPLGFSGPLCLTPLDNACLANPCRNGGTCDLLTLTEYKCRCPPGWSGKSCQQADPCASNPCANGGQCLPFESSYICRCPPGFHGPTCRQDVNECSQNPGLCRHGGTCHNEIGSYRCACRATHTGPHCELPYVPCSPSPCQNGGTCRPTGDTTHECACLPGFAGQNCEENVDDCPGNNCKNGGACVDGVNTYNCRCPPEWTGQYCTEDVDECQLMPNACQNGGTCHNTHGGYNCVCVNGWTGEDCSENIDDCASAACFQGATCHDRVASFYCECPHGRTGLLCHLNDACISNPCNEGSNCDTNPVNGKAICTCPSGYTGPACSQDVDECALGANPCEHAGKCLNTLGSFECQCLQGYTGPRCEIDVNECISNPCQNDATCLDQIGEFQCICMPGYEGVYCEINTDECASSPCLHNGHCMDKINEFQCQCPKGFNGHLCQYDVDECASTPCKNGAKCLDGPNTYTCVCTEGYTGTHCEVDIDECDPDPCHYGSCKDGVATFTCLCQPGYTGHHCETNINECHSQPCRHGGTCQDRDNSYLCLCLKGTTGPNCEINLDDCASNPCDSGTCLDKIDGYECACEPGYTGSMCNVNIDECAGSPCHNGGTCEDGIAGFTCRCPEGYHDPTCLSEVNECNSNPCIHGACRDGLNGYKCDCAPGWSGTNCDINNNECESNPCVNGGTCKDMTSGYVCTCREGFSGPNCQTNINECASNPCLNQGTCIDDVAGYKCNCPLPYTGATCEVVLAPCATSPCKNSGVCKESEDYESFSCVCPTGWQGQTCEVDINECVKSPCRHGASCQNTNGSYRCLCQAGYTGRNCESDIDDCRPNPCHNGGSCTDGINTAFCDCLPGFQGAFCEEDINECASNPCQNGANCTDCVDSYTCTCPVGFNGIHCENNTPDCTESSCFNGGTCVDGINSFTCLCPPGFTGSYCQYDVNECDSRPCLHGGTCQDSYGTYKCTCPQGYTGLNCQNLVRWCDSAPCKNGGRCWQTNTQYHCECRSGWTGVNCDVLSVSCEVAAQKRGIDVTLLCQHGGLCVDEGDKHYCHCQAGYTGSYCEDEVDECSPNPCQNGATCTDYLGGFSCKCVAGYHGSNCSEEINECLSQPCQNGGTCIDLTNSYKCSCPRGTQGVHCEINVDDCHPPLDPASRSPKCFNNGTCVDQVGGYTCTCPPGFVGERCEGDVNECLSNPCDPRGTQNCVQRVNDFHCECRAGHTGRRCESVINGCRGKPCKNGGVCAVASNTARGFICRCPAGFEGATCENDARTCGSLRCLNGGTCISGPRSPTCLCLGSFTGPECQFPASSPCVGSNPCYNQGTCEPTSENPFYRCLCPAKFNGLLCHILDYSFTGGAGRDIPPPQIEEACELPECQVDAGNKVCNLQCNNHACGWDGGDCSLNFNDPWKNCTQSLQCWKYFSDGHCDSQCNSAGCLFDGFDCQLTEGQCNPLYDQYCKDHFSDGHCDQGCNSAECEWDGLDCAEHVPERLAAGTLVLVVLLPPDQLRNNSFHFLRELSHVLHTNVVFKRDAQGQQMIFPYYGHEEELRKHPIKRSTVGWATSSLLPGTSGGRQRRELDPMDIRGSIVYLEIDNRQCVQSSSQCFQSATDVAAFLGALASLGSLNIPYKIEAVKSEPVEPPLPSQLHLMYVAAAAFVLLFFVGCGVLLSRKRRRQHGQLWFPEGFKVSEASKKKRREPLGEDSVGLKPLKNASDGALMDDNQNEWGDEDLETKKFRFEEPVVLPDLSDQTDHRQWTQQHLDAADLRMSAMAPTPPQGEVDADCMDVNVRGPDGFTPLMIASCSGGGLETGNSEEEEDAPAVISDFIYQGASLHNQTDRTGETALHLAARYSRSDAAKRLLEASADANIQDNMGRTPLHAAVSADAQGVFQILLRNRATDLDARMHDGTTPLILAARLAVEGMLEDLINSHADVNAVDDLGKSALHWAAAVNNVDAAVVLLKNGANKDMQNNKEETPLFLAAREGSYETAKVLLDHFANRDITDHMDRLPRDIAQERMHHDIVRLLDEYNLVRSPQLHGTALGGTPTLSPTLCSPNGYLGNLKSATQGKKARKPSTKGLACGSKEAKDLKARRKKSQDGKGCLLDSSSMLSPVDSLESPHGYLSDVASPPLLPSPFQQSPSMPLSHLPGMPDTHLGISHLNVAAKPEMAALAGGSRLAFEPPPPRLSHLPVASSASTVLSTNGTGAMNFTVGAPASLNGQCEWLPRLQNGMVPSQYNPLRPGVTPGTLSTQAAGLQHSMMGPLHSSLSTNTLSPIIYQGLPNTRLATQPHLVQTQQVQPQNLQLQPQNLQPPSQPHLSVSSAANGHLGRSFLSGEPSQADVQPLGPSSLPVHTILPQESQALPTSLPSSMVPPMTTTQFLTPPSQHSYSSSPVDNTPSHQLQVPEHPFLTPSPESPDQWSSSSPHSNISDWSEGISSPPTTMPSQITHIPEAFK
- PROCEDURE DETAILS: cell-based ELISA, U-2 OS cells expressing full-length mouse Notch1

[
  {
    "BINDER": "humanized 351 VH1.0/VL1.4 (antibody, human IgG1, V domains shown) VH: EVQLVESGGGLVQPGGSLRLSCAASGFTFSHYGMNWVRQAPGKGLEWVASISRSGSYIRYVDTVKGRFTISRDNAKNSLYLQMNSLRAEDTAVYYCAREGQFGDYFEYWGQGTLVTVSS VL: DIQMTQSPSSLSASVGDRVTITCRASQKISTNLHWYQQKPGKAPKLLIKYASQTISGVPSRFSGSGSGTDFTLTISSLQPEDFATYYCQQTNSWPLTFGGGTKVEIK",
    "EC50 / nM": 0.07
  },
  {
    "BINDER": "humanized 438 VH1.1/VL1.0 (antibody, human IgG1, V domains shown) VH: EVQLVESGGGLVQPGGSLRLSCAASGFTFSSFAMAWVRQAPGKGLEWVASISYGGADTYYRDSVKGRFTISRDNAKNSLYLQMNSLRAEDTAVYYCAKDLPYYGYTPFVMDAWGQGTLVTVSS VL: DIQMTQSPSSLSASVGDRVTITCRASQRINTDLHWYQQKPGKAPKLLIYFASQTISGVPSRFSGSGSGTDFTLTISSLQPEDFATYYCQQSNSWPYTFGQGTKLEIK",
    "EC50 / nM": 0.144
  }
]
